# Target or test system: UniProt:O15379
# Sequence (O15379 whole entry): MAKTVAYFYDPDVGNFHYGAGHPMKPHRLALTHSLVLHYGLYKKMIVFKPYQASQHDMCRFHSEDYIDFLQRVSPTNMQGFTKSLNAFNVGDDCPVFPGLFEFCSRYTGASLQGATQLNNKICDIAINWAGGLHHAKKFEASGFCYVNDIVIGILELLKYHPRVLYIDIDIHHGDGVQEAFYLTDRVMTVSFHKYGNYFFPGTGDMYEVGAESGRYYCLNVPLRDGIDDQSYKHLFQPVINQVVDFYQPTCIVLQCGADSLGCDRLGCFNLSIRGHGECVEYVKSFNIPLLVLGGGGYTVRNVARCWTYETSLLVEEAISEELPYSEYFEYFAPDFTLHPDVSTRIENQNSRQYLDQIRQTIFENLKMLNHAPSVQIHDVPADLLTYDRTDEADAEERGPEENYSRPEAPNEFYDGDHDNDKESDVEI
# Sequence (Q9Y618 395-489 partner): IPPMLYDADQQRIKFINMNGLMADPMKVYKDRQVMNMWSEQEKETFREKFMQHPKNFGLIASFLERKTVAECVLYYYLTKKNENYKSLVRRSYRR
# Method summary: HDAC3 in vitro enzymatic assay (fluorescence)
# Type: biochemical
# Experimental parameters: Table 4 selectivity profiling
This listing pairs molecules with measured IC50.
API: value field is a number in nM; no unit string.

Please review the following examples before continuing.
# Molecule, Target or test system, Reported endpoint, Value measured
rows = [
    ("O=C(NO)c1ccc2oc(-c3ccc(C4CC4)cc3)nc2c1 [Example 29]", "UniProt:O15379", "IC50", 1000),
    ("O=C(NO)c1ccc2oc(-c3ccc(C(F)(F)F)cc3)nc2c1 [Example 18]", "UniProt:O15379", "IC50", 1600),
    ("COc1cccc(-c2cc3ccc(C(=O)NO)cc3o2)c1 [Example 285]", "UniProt:O15379", "IC50", 640),
    ("O=C(NO)c1ccc2oc(-c3ccc(OC(F)(F)F)cc3)nc2c1 [Example 9]", "UniProt:O15379", "IC50", 1700),
    ("O=C(NO)c1ccc2oc(COc3cccc(F)c3)cc2c1 [Example 162]", "UniProt:O15379", "IC50", 320),
    ("O=C(NO)c1ccc2oc(-c3ccc(-c4ccccc4F)cc3)nc2c1 [Example 21]", "UniProt:O15379", "IC50", 1800),
    ("CC(C)c1ccc(-c2nc3cc(C(=O)NO)ccc3s2)cc1 [Example 75]", "UniProt:O15379", "IC50", 500),
    ("COc1ncccc1-c1ccc(-c2nc3cc(C(=O)NO)ccc3o2)cc1 [Example 28]", "UniProt:O15379", "IC50", 1800),
]

Please report IC50 for the following molecule: Cc1noc(C)c1-c1cc2cc(C(=O)NO)ccc2s1 [Example 100]
18000

Please report IC50 for the following molecule: CC(C)c1ccc(-c2nc3cc(C(=O)NO)ccc3o2)cc1 [Example 1]
1700

Please report IC50 for the following molecule: O=C(NO)c1ccc2oc(-c3ccccc3Cl)nc2c1 [Example 12]
560

Please report IC50 for the following molecule: O=C(NO)c1ccc2sc(-c3cccnc3)cc2c1 [Example 96]
7200

Please report IC50 for the following molecule: CC(C)(C)c1ccc(-c2nc3cc(C(=O)NO)ccc3o2)cc1 [Example 4]
410

Please report IC50 for the following molecule: CC(C)(C)c1ccc(-c2nc3cc(C(=O)NO)ccc3s2)cc1 [Example 77]
930

Please report IC50 for the following molecule: CC(C)c1ccc(-c2cc3cc(C(=O)NO)ccc3s2)cc1 [Example 89]
90000

Please report IC50 for the following molecule: O=C(NO)c1ccc2nc(-c3cccc4cccnc34)sc2c1 [Example 70]
2300

Please report IC50 for the following molecule: O=C(NO)c1ccc2nc(Nc3cccc(OCc4ccccc4)c3)[nH]c2c1 [Example 132]
370

Please report IC50 for the following molecule: O=C(NO)c1ccc2sc(-c3ccc(F)cc3)nc2c1 [Example 76]
450

Please report IC50 for the following molecule: COc1ccc(-c2ccc(-c3nc4cc(C(=O)NO)ccc4o3)cc2)cn1 [Example 27]
820

Please report IC50 for the following molecule: CC(C)c1ccc(-c2cc3cc(C(=O)NO)cnc3o2)cc1 [Example 113]
330
